Catalogue of molecules with associated MIC
# System: Streptococcus agalactiae
# Experiment notes: Antibacterial activity against Streptococcus agalactiae group B ATCC 12386 after overnight incubation by photometric method
# Assay type: functional
Quantity: MIC (µg/mL)

1) CC(C)(C)c1cc(Cn2cc(CCN)nn2)cc(C(C)(C)C)c1.Cl; 40
2) CCCCCCCOc1ccc(-n2cc(CCCNC(=N)N)nn2)cc1.Cl; 4
3) CC(C)(C)c1cc(Cn2cc(CCCNC(=N)N)nn2)cc(C(C)(C)C)c1.Cl; 10

###

# Tested on: Streptococcus agalactiae
# Experiment notes: Antibacterial activity against Streptococcus agalactiae group B ATCC 12386 after overnight incubation by photometric method
# Assay type: functional
Quantity: log10 of MIC (log10 of the value in µg/mL)

1. CCCCCCCOc1ccc(-n2cc(CCCN)nn2)cc1.Cl; 0.90
2. CC(C)(C)c1cc(-n2cc(CCCNC(=N)N)nn2)cc(C(C)(C)C)c1.Cl; 0.60
3. CC(C)(C)c1cc(-n2cc(CCCN)nn2)cc(C(C)(C)C)c1.Cl; 1.20
4. CN(C)CCCc1cn(Cc2cc(C(C)(C)C)cc(C(C)(C)C)c2)nn1.Cl; 1.70
5. CC(C)(C)c1cc(Cn2cc(CCNC(=N)N)nn2)cc(C(C)(C)C)c1.Cl; 1.00

###

# System: Staphylococcus aureus
# Experiment notes: Antibacterial activity against Staphylococcus aureus ATCC 25923 after overnight incubation by photometric method
# Assay type: functional
Cut-off 20 µg/mL on MIC: below means yes, at or above means no.

1. CN(C)CCCc1cn(Cc2cc(C(C)(C)C)cc(C(C)(C)C)c2)nn1.Cl; no
2. CCCCCCCOc1ccc(-n2cc(CCCN)nn2)cc1.Cl; yes
3. CC(C)(C)c1cc(Cn2cc(CCCNC(=N)N)nn2)cc(C(C)(C)C)c1.Cl; yes
4. CCCCCCCOc1ccc(-n2cc(CCCNC(=N)N)nn2)cc1.Cl; yes
5. CC(C)(C)c1cc(-n2cc(CCCN)nn2)cc(C(C)(C)C)c1.Cl; yes
6. CC(C)(C)c1cc(Cn2cc(CCN)nn2)cc(C(C)(C)C)c1.Cl; no
7. CC(C)(C)c1cc(-n2cc(CCCNC(=N)N)nn2)cc(C(C)(C)C)c1.Cl; yes

###

# System: MRC5
# Experiment notes: Cytotoxicity against human MRC5 cells at <50 ug/ml
# Assay type: cell-based
Quantity: Activity

1) CN(C)CCc1cn(Cc2cc(C(F)(F)F)cc(C(F)(F)F)c2)nn1.Cl; Non-Toxic
2) CN(C)CCc1cn(Cc2ccc3ccccc3c2)nn1.Cl; Non-Toxic
3) CC(C)(C)c1cc(Cn2cc(CCNC(=N)N)nn2)cc(C(C)(C)C)c1.Cl; Non-Toxic
4) Cl.NCCc1cn(Cc2cc(C(F)(F)F)cc(C(F)(F)F)c2)nn1; Non-Toxic
5) Cl.NCCCc1cn(Cc2ccccc2)nn1; Non-Toxic
6) Cl.NCCCc1cn(Cc2cc(C(F)(F)F)cc(C(F)(F)F)c2)nn1; Non-Toxic
7) CN(C)CCCc1cn(Cc2ccccc2)nn1.Cl; Non-Toxic
8) CC(C)(C)c1cc(Cn2cc(CCCN)nn2)cc(C(C)(C)C)c1.Cl; Non-Toxic
9) CN(C)CCCc1cn(Cc2cc(C(F)(F)F)cc(C(F)(F)F)c2)nn1.Cl; Non-Toxic
10) Cl.N=C(N)NCCc1cn(Cc2ccc3ccccc3c2)nn1; Non-Toxic
11) Cl.N=C(N)NCCCc1cn(Cc2ccccc2)nn1; Non-Toxic
12) CN(C)CCc1cn(Cc2ccccc2)nn1.Cl; Non-Toxic
13) CN(C)CCCc1cn(Cc2ccc3ccccc3c2)nn1.Cl; Non-Toxic
14) CN(C)CCCc1cn(Cc2cc(C(C)(C)C)cc(C(C)(C)C)c2)nn1.Cl; Non-Toxic
15) Cl.N=C(N)NCCc1cn(Cc2cc(C(F)(F)F)cc(C(F)(F)F)c2)nn1; Non-Toxic
16) CC(C)(C)c1cc(Cn2cc(CCN)nn2)cc(C(C)(C)C)c1.Cl; Non-Toxic
17) Cl.N=C(N)NCCCc1cn(Cc2ccc3ccccc3c2)nn1; Non-Toxic
18) Cl.NCCc1cn(Cc2ccc3ccccc3c2)nn1; Non-Toxic
19) Cl.NCCc1cn(Cc2ccccc2)nn1; Non-Toxic
20) Cl.NCCCc1cn(Cc2ccc3ccccc3c2)nn1; Non-Toxic
21) Cl.N=C(N)NCCc1cn(Cc2ccccc2)nn1; Non-Toxic
22) Cl.N=C(N)NCCCc1cn(Cc2cc(C(F)(F)F)cc(C(F)(F)F)c2)nn1; Non-Toxic
23) CC(C)(C)c1cc(Cn2cc(CCCNC(=N)N)nn2)cc(C(C)(C)C)c1.Cl; Non-Toxic
24) CN(C)CCc1cn(Cc2cc(C(C)(C)C)cc(C(C)(C)C)c2)nn1.Cl; Non-Toxic

###

# System: Enterococcus faecalis
# Experiment notes: Antibacterial activity against Enterococcus faecalis ATCC 29212 after overnight incubation by photometric method
# Assay type: functional
Quantity: MIC (µg/mL)

1) CC(C)(C)c1cc(-n2cc(CCCN)nn2)cc(C(C)(C)C)c1.Cl; 32
2) CC(C)(C)c1cc(Cn2cc(CCCNC(=N)N)nn2)cc(C(C)(C)C)c1.Cl; 40
3) CCCCCCCOc1ccc(-n2cc(CCCN)nn2)cc1.Cl; 16
4) CC(C)(C)c1cc(-n2cc(CCCNC(=N)N)nn2)cc(C(C)(C)C)c1.Cl; 16
5) CC(C)(C)c1cc(Cn2cc(CCNC(=N)N)nn2)cc(C(C)(C)C)c1.Cl; 40
6) CCCCCCCOc1ccc(-n2cc(CCCNC(=N)N)nn2)cc1.Cl; 8

Where these numbers come from: ChEMBL document CHEMBL3994659
